Ref: patent US7074777B2

- PROTOCOL_NOTES: Test Example 1: ionized calcium level in blood after single percutaneous application to dorsal skin of mice (ion selective electrode method)
- Type: in vivo
- REPORTED_CONDITIONS: Balb/c mice, dosage 1000 μg/kg, blood drawn two days after application, mean of 3 mice
Could you please report measured Ionized Ca level for the items listed next?
Record the result as a number with its unit.

Incoming: Fill in: Ionized Ca level of C=C1C(=CC=C2CCCC3(C)C(COCCCC(O)(CC)CC)=CCC23)CC(O)CC1O (centres unmarked) is ___
Outgoing: 2.12 mmol/L

Incoming: Now the same for C=C1C(=CC=C2CCCC3(C)C(COCCCC(C)(C)O)=CCC23)CC(O)CC1O (centres unmarked)
Outgoing: 1.68 mmol/L

Incoming: Also, C=C1C(=CC=C2CCCC3(C)C(COCC#CC(C)(C)O)=CCC23)CC(O)CC1O (centres unmarked) please.
Outgoing: 1.63 mmol/L

Incoming: Now the compound C=C1C(=CC=C2CCCC3(C)C(COCCC(C)(C)O)=CCC23)CC(O)CC1O (centres unmarked)
Outgoing: 1.52 mmol/L

Incoming: C=C1C(=CC=C2CCCC3(C)C(COCCCCC(C)(C)O)=CCC23)CC(O)CC1O (centres unmarked) ?
Outgoing: 1.81 mmol/L
